System: GPR1 (Homo sapiens)
Construct: host or cells: CHO
Sequence (P46091 whole entry): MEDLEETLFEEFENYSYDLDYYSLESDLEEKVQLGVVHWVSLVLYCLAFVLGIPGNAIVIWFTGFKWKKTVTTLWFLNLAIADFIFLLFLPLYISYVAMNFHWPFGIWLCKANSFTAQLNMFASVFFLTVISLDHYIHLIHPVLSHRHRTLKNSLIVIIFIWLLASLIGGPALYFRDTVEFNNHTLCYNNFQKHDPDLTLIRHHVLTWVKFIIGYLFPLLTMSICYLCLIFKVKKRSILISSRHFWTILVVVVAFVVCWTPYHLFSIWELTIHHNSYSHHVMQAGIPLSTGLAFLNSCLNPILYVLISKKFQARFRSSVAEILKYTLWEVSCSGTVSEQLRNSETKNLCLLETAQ
Protocol: PathHunter β-Arrestin assay, GPR1, agonist and antagonist mode
Assay type: cell-based
Method: The DiscoveRx PathHunter™ eXpress GPCR activity assay was employed to test agonist and antagonist activities of the chemerin peptides against the GPCRs ChemR23 and GPR1. […] The assay involves CHO cell lines that express 1) a GPCR of interest (e.g. ChemR23 or GPR1) that has a fragment of the βgal enzyme fused to the C-terminus of the receptor and 2) a β-arrestin fused to the main β-gal enzyme. […] A substrate is then added and luminescence is generated to detect β-arrestin recruitment. […]
Peptide text beside a SMILES is read from it.

Compound	IC50
C[C@H](N)C(=O)NCC(=O)N[C@@H](CCC(=O)O)C(=O)N[C@@H](CC(=O)O)C(=O)N1CCC[C@H]1C(=O)N[C@@H](Cc1c[nH]cn1)C(=O)N[C@@H](CO)C(=O)N[C@@H](Cc1ccccc1)C(=O)N[C@@H](Cc1ccc(O)cc1)C(=O)N[C@@H](Cc1ccccc1)C(=O)N1CCC[C@H]1C(=O)NCC(=O)N[C@@H](CCC(N)=O)C(=O)N[C@@H](Cc1ccccc1)C(=O)N[C@@H](C)C(=O)N[C@@H](Cc1ccccc1)C(=O)O [C16 (human)] (H-AGEDPHSFYFPGQFAF-OH; N-terminus and C-terminus assumed)	> 10 µM
